B1: glmS ribozyme (parent)
chain: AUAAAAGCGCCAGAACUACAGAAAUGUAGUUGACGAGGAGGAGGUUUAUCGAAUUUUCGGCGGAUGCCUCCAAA

Variants of: B1
Assay: self-cleavage kobs at 160 uM GlcN6P; higher = faster cleavage; RNA array
Details: with glucosamine-6-phosphate
This sample holds only a part of the variants without activity.
Let's look at some variants and their measured self-cleavage kobs at 160 uM GlcN6P.
measured metric: self-cleavage kobs at 160 uM GlcN6P

INSERT INTO assay_data (variant_description, result) VALUES
  ('G29U A36G A52G', '< 1e-05 s⁻¹'),
  ('G43C C58A', '< 1e-05 s⁻¹'),
  ('G35U G51A', '< 1e-05 s⁻¹'),
  ('A42U C71G', '< 1e-05 s⁻¹'),
  ('A12U U47G C70G', '7.51e-05 s⁻¹'),
  ('C61U A64C C67G', '< 1e-05 s⁻¹'),
  ('C11G G35C', '< 1e-05 s⁻¹'),
  ('C10G U45C', '< 1e-05 s⁻¹'),
  ('G7A U54C U65G C67U', '< 1e-05 s⁻¹'),
  ('C50U G63A', '< 1e-05 s⁻¹'),
  ('G7U C50A', '< 1e-05 s⁻¹'),
  ('A33C', '2.95e-05 s⁻¹'),
  ('A14U U54A', '0.000834 s⁻¹'),
  ('G9U A14G U54A U56C G59A G63A U65G', '< 1e-05 s⁻¹'),
  ('C8A G13U G35U C68G', '0.000168 s⁻¹'),
  ('G35U A42C U55C', '< 1e-05 s⁻¹'),
  ('G7U U45G', '< 1e-05 s⁻¹'),
  ('G29A G43C', '< 1e-05 s⁻¹'),
  ('A12U U57C', '6.12e-05 s⁻¹'),
  ('C11G A33C G35C G62A', '< 1e-05 s⁻¹'),
  ('G60A G62U', '< 1e-05 s⁻¹'),
  ('C34U G59U', '< 1e-05 s⁻¹'),
  ('A52G U55C', '8.26e-05 s⁻¹'),
  ('G13U G35C', '< 1e-05 s⁻¹'),
  ('A15G U46G', '0.000667 s⁻¹'),
  ('A33C G38C', '< 1e-05 s⁻¹'),
  ('A53G C68U', '0.00034 s⁻¹'),
  ('C11A G60U', '< 1e-05 s⁻¹'),
  ('U31G U65G', '9.35e-05 s⁻¹'),
  ('A39G A53G', '0.00433 s⁻¹'),
  ('C10U C11G A39C', '< 1e-05 s⁻¹'),
  ('C67G U69C', '0.000179 s⁻¹'),
  ('G9U G51C', '< 1e-05 s⁻¹'),
  ('G32A G51C', '< 1e-05 s⁻¹'),
  ('A14C U31C', '0.000307 s⁻¹'),
  ('A36U G40U', '< 1e-05 s⁻¹'),
  ('A6G C34A', '< 1e-05 s⁻¹'),
  ('G40U C61U', '< 1e-05 s⁻¹'),
  ('G29U G59U', '< 1e-05 s⁻¹'),
  ('C11U U55C', '6.7e-05 s⁻¹'),
  ('A36U A42U', '< 1e-05 s⁻¹'),
  ('C16U G38A', '< 1e-05 s⁻¹'),
  ('G38U G62A', '< 1e-05 s⁻¹'),
  ('G7A G9C C16G', '< 1e-05 s⁻¹'),
  ('C34U G38U', '< 1e-05 s⁻¹'),
  ('A15C U56G', '7.19e-05 s⁻¹');
